# Assay procedure: yeast display, Sf9 membrane polyspecificity reagent, FACS + sequencing; frameworks hold sequencing errors

# Input sequence, polyreactivity (PSR sort gate)
measured = [
    ("QVQLEESGGGLVQAGGSLSLSCAASGSSLDTYVMGWYRQAPGKEREVVAAISSDTSTNYADSVKGRFTISRDNAKNTVYLQMNSLNPEDTAVYYCAAVGSYYGWYQGFDYWGQGTLVTVSS", "low polyreactivity"),
    ("QVQLVESGGGLVQAGGSLRLSCAASGSICAFYGMRWYRQAPGKERELVAAITRSGGSTYYADSVKGRFTISRDNAKNTVYLQMNSLKAEDTAVSYCAKRPHHGSTKYNYWGQGTQVTVSS", "low polyreactivity"),
]
